Value source: the METLIN SMRT retention time set (Domingo-Almenara et al. 2019)

Assay: gradient 5% acetonitrile 3 min, to 50% in 2 min, to 85% in 15 min, held 3 min, 100 µL/min
Conditions: column: Zorbax Extend-C18 2.1 x 50 mm; eluents: water / acetonitrile, 0.1% formic acid
Measured RP-LC retention time, listed per entry.

COc1ccc(NC(=O)c2noc3c2CC(C)CC3)cc1OC (centres undefined): 895 s
CCCN(CCC)S(=O)(=O)c1cc(-c2nnc(C)o2)co1: 897 s
COc1ccc(N2CCN(c3ncccc3-c3nc(C)no3)CC2)cc1: 736 s

Record request: RP-LC retention time value, item "CCN(CC)CCCCN1c2ccccc2Oc2ccc(Cl)cc21"
843 s

Same question for Cc1ccccc1NC(=O)NC1CCN(c2ccc(F)cc2)C1=O (centres undefined) please.
792 s

Same question for "Cn1c(=O)n(C)c2cc(CNc3cc(C(=O)O)ccc3Cl)ccc21" please.
738 s

Same question for "Cc1ccc(S(=O)(=O)N2CCC3(CC2)NCCN=C3NCc2cccc(F)c2)cc1" please.
718 s

Same question for "CCn1ccc2sc(C)c(C(=O)NCc3ccc(OC)cc3)c2c1=O" please.
786 s

Same question for "COc1ccc(CNC(=O)C2=Cc3cccc(OC)c3OC2)cc1OC" please.
788 s

Same question for "CN1C(=O)[C@H]2CN(Cc3ccc(C#N)cc3)C[C@H]2C1=O" please.
574 s

Same question for COc1ccc(CNC(=O)C2CCCN(c3cnc4nc(C)c(C)nc4c3)C2)cc1 (centres undefined) please.
710 s

Same question for "COc1ccc(OC)c(NC(=O)c2cc3nc(-c4cccs4)cc(C(F)(F)F)n3n2)c1" please.
1200 s

Same question for "Cc1nc(-c2cc(S(=O)(=O)Nc3cccc(Cl)c3C)c(C)s2)cs1" please.
1120 s

Same question for "COc1ccc(CC(=O)NCCc2nc3cccnc3n2C)cc1" please.
581 s

Same question for "Cc1ccccc1-c1noc(CCn2nc(-c3ccccc3)ccc2=O)n1" please.
1000 s

Same question for "O=C(Oc1ccccc1)N1CCC(CNC(=O)C2(c3ccccc3)CCOCC2)CC1" please.
816 s

Same question for "O=C(CN1CCN(Cc2ccccc2)C1=O)NC1CCN(Cc2ccccc2)CC1" please.
599 s

Same question for "Cn1ncc2c(N3CCSCC3)nc(C(=O)N3CCN(Cc4ccccc4)CC3)nc21" please.
600 s

Same question for "COc1ccc(-c2noc(Cc3nnc(-c4ccc(F)cc4)o3)n2)cc1OC" please.
889 s

Same question for "CC(C)n1c(=O)n(CC(=O)N2CCCc3ccccc32)c2cc(S(=O)(=O)N3CCCC3)ccc21" please.
947 s

Same question for "O=C(NCC(=O)N1CCCc2ccccc21)c1cccc(Br)c1" please.
822 s

Same question for "CC(C)CN1C(=O)CCc2cc(NS(=O)(=O)c3ccc(F)cc3)ccc21" please.
861 s

Same question for "CC(C)(C)c1cccc(Nc2nc3ccncc3n(Cc3ccccc3)c2=O)c1" please.
963 s

Same question for "O=C(CCc1cccc2[nH]ccc12)NCc1ccc(N2CCOCC2)cc1" please.
714 s

Same question for CCN(CC)CCCC(C)Nc1nc(C)cc(Nc2ccc3nc(C)cc(N)c3c2)n1 (centres undefined) please.
568 s
